- System: MOLM-13 cells
- Experimental Protocol: Cell viability assay (CellTiter-Glo) in MOLM-13 cells, alone or with gilteritinib
- Format: cell-based
- Measurement Conditions: Homo sapiens, MOLM-13, 72 h, MOLM-13 cells, with gilteritinib 20 nM, three days, CellTiter-Glo; read-out: MOLM-13 IC50 gilteritinib
pIC50: −log10 of the molar value.
Observed Property: pIC50

>>> assay_value("O=C1CCC(N2C(=O)c3ccc(NCCC[C@H]4C[C@@H](n5cc(-c6cnc7ccc(C8CCOCC8)cc7n6)c(C6CC6)n5)C4)cc3C2=O)C(=O)N1 (stereo partly drawn)")
"> 8.00"
>>> assay_value("O=C1CCC(N2C(=O)c3ccc(NC[C@H]4C[C@H](n5cc(-c6cccc(NC7CCC7)n6)c(C6CC6)n5)C4)cc3C2=O)C(=O)N1 (stereo partly drawn)")
"7.00 to 8.00"
>>> assay_value("O=C1CCC(N2Cc3cc(NCCCCCC4(N5CCC(n6cc(-c7cnc8ccccc8n7)cn6)CC5)CC4)ccc3C2=O)C(=O)N1 (stereo not drawn)")
"< 6.00"
